- Method description: Antioxidant activity assessed as superoxide radical scavenging activity at 100 uM by nitroblue tetrazolium method
- Format: functional
Measurement kind: inhibition

Worked examples, 5 compounds total:
1) O=c1ccc2cc(O)c3ccccc3c2o1; 61%
2) O=C(O)/C=C/c1ccc(O)c(O)c1 [CAFFEIC ACID]; 71%
3) Cc1c(O)ccc2ccc(=O)oc12; 60%
4) O=c1ccc2c(o1)c(O)cc1ccccc12; 79%
5) Cc1cc2oc(=O)ccc2cc1O; 54%

Inquiry: Given Cc1cc(O)cc2oc(=O)ccc12 , state its recorded inhibition.
Reply text: 61%

Inquiry: Which inhibition value is on record for O=c1ccc2cc(O)c3c(c2o1)CCCC3 ?
Reply text: 68%

Inquiry: Which inhibition value is on record for O=c1ccc2cccc(O)c2o1 [8-Hydroxycoumarin] ?
Reply text: 56%

Inquiry: What value of inhibition has been recorded for this entry: O=c1ccc2ccc(O)cc2o1 [UMBELLIFERONE]
Reply text: 65%

---

- Test system: Glycine max
- Method description: Inhibition of soybean lipoxygenase at 100 uM by UV absorbance based assay
Measurement kind: inhibition

1) Cc1cc2oc(=O)ccc2cc1O; 3%
2) O=c1ccc2c(cc(O)c3ccccc32)o1; 38%
3) Cc1ccc2ccc(=O)oc2c1; 89%
4) O=c1ccc2ccccc2o1 [COUMARIN]; 15%
5) O=c1ccc2cccc(O)c2o1 [8-Hydroxycoumarin]; 37%

Inquiry: Record request: inhibition value, item O=c1ccc2cc(O)c3c(c2o1)CCCC3
Reply text: 12%

Inquiry: // lookup inhibition for Cc1c(O)ccc2ccc(=O)oc12
Reply text: 25%

Inquiry: # get_value(readout='inhibition', item= Cc1cc(O)cc2oc(=O)ccc12 )
Reply text: 27%

---

- Tested on: Radical scavenging activity
- Method description: Antioxidant activity assessed as DPPH radical scavenging activity at 0.05 mM after 20 mins
- Assay type: functional
Active and inactive are the calls of the source. No cut-off for these calls is given here.
Measurement kind: Activity

Examples with their reported Activity follow.
1. O=c1ccc2cccc(O)c2o1 [8-Hydroxycoumarin]; 31%
2. Cc1cc(O)cc2oc(=O)ccc12; 43%
3. O=c1ccc2c(o1)c(O)cc1ccccc12; 22%
4. CC(Cc1ccc(O)c(O)c1)C(C)Cc1ccc(O)c(O)c1 (configuration not stated); 68%
5. O=c1ccc2ccccc2o1; inactive

Let us move to another entry and its Activity.
Inquiry: Please report the recorded Activity for O=c1ccc2c(cc(O)c3ccccc32)o1 .
Reply text: 28%

---

- Method description: Inhibition of soybean lipoxygenase by UV absorbance based assay
- Design: species or system Glycine max
Measurement kind: IC50 (µM)
Numbers only; they are read as µM.

1) O=c1ccc2ccc(O)cc2o1 [UMBELLIFERONE]; 43
2) O=c1ccc2cc(O)c3ccccc3c2o1; 100

Field: next molecule
Inquiry: Requested read-out: IC50. Entry: O=C(O)/C=C/c1ccc(O)c(O)c1 [CAFFEIC ACID]
Reply text: 600

---

- Test system: Radical scavenging activity
- Method description: Antioxidant activity assessed as DPPH radical scavenging activity at 0.01 mM after 60 mins
- Format: functional
Measurement kind: Activity (%)
Your answer is read as %, so omit the unit and give the number.

1) Cc1cc(O)cc2oc(=O)ccc12; 54
2) Cc1c(O)ccc2ccc(=O)oc12; 27
3) O=c1ccc2cc(O)c3ccccc3c2o1; 89

Inquiry: Can you look up the measured Activity of O=c1ccc2c(o1)c(O)cc1ccccc12 for me?
Reply text: 54

Inquiry: Given the entry O=c1ccc2cc(O)c3c(c2o1)CCCC3 , report its measured Activity.
Reply text: 40

Inquiry: May I ask what Activity has been recorded for CC(Cc1ccc(O)c(O)c1)C(C)Cc1ccc(O)c(O)c1 (configuration not stated) ?
Reply text: 83

Inquiry: Entry O=c1ccc2c(cc(O)c3ccccc32)o1 has what Activity?
Reply text: 51

Inquiry: I'd like to know its Activity. The compound in question is O=c1ccc2cccc(O)c2o1 [8-Hydroxycoumarin]
Reply text: 32
